System: Saccharomyces cerevisiae;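 also: PSI is a weighted mean of sequencing reads over stability bins, variants kept only with over 10 reads, mCherry proximal and sfGFP distal, peptide attached via GGGS linker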
Experiment: protein stability index of tFT-peptide fusion (C-terminal peptide) (PSI (0-1 scale)); higher = more stable (slower turnover)
Conditions: genetic background: wild type; temperature: 30 C
// protein stability index lookup, one value per entry

[
  {
    "Macromolecule sequence": "GGGARGDCLMGS",
    "protein stability index": 0.681
  },
  {
    "Macromolecule sequence": "SGPNASRFYAPI",
    "protein stability index": 0.696
  },
  {
    "Macromolecule sequence": "LPLALLSPPFGS",
    "protein stability index": 0.707
  },
  {
    "Macromolecule sequence": "PSPPIPALSFST",
    "protein stability index": 0.684
  },
  {
    "Macromolecule sequence": "VLADIGSAGIGR",
    "protein stability index": 0.711
  },
  {
    "Macromolecule sequence": "CKKGCTEVKNAV",
    "protein stability index": 0.719
  },
  {
    "Macromolecule sequence": "HFSSLDPFLPSL",
    "protein stability index": 0.712
  },
  {
    "Macromolecule sequence": "TLLPPACFPTPP",
    "protein stability index": 0.717
  },
  {
    "Macromolecule sequence": "VFVDGVSYGGLC",
    "protein stability index": 0.681
  },
  {
    "Macromolecule sequence": "GFRGGAYRWCIS",
    "protein stability index": 0.701
  },
  {
    "Macromolecule sequence": "RLSSPTRINHPN",
    "protein stability index": 0.71
  },
  {
    "Macromolecule sequence": "RRSIAVEFSGTG",
    "protein stability index": 0.679
  },
  {
    "Macromolecule sequence": "RCGGGKWGRGAE",
    "protein stability index": 0.697
  }
]
